# System: cocklebur
# assay-name: Test B pre-/postemergence herbicide test
# Assay type: in vivo, Xanthium strumarium
# conditions: 125 g ai/ha; 0 is no effect, 100 is complete control; preemergence
readout-name: Plant response rating (0 to 100 scale), Cocklebur
// keep it numeric: no unit symbol after the value

CCc1nn(C(C)(C)C)nc1C(=O)Nc1cccc(C(=O)NC2CC2)c1    0
C=CCN(CC=C)C(=O)c1ccc(F)c(NC(=O)c2cc(C(C)(C)C)nn2CC)c1    0
C#CCNC(=O)c1cccc(NC(=O)c2cc(C(C)(C)C)nn2C)n1    0
C#CCNC(=O)c1cccc(NC(=O)c2nn(C(C)C)nc2CC)c1    0

Which Plant response rating (0 to 100 scale), Cocklebur is reported for this compound? CCc1nn(C(C)(C)CC)nc1C(=O)Nc1cccc(C(=O)N(C)C)c1 10

Then this compound: C=CCOc1cccc(NC(=O)c2cc(C(C)(C)C)nn2CC)c1 0

Recorded values, source patent US20060069132A1.
